These measurements were taken from paper PMC9161374.

System: SARS-CoV-2 (B.1)
Assay: Anti-SARS-CoV-2 activity in Vero E6 cells (viral yield by qRT-PCR)
Type: cell-based
Details: B.1, 50 uM, Vero E6, replicates; 50 µM
Kindly supply the reported % Inhibition values for the records listed here.
Answers are plain numbers, in %.

Consider the worked cases shown below.
Compound	Units	% Inhibition
CCC(CC)C(=O)OC[C@H]1O[C@@](C#N)(c2ccc3c(N)ncnn23)[C@H](O)[C@@H]1O [ATV011]	%	99.9874
CCCC(=O)OC[C@H]1O[C@@](C#N)(c2ccc3c(N)ncnn23)[C@H](O)[C@@H]1O [ATV009]	%	99.9896
N#C[C@@]1(c2ccc3c(N)ncnn23)O[C@H](CO)[C@@H](O)[C@H]1O [GS-441524, reference compound]	%	98.8136

# return % Inhibition for each item in the list
1. CC(C)C(=O)OC[C@H]1O[C@@](C#N)(c2ccc3c(N)ncnn23)[C@H](O)[C@@H]1O [ATV006]
2. N#C[C@@]1(c2ccc3c(N)ncnn23)O[C@H](COC(=O)c2ccccc2)[C@@H](O)[C@H]1O [ATV013]
3. CC(C)CC(=O)OC[C@H]1O[C@@](C#N)(c2ccc3c(N)ncnn23)[C@H](O)[C@@H]1O [ATV017]

1: 99.991; 2: 99.9922; 3: 99.9887
